# System: HCT-15 colon
# experiment notes: NCI tumour cell line growth inhibition, 48 h; in the data active = GI50 below about 0.43 µM; inactive = the rest
Output constraint: value belongs to True = active, False = inactive

Please state the recorded outcome for this compound: COC1=CC(c2ccc[nH]2)=N/C1=C\c1[nH]c(C)c(CC(=O)OCc2ccccc2)c1C
True

Returns: the outcome recorded for CCCCCCCC(=O)SCC/C=C/[C@@H]1CC(=O)NCc2nc(cs2)C2=N[C@@](C)(CS2)C(=O)N[C@@H](C(C)C)C(=O)N1 in this assay.
False

Look up the recorded call for ClCc1ccccc1Cn1cnc2c(Cl)ncnc21 in this test.
False

----------
# System: CAKI-1 renal
# experiment notes: NCI tumour cell line growth inhibition, 48 h
TGI overview
Return type: number; implicit unit µM.

molecule: CC1CC(C)C2OC2(C)C[C@H](C)C(=O)NC(C)C(=O)N(C)[C@H](Cc2c(Br)[nH]c3ccccc23)C(=O)N[C@@H](c2ccc(O)cc2)CC(=O)O1 (some centres undefined)
experimental system: CAKI-1 renal
TGI / µM: 4.71

--- query ---
Per the records, this molecule ( Cn1c(-c2ccccc2)c(/C=C/C2=[N+](C)c3ccccc3C2(C)C)c2ccccc21 ) has TGI equal to 5.08

----------
# Test system: COLO 205 colon
# experiment notes: NCI tumour cell line growth inhibition, 48 h; in the data active means GI50 below about 0.43 µM; inactive means the rest
Form entry, call: pick from active, inactive

chemical structure: O=C1C=Cc2c1ccc1ccccc21
experimental system: COLO 205 colon
class name: inactive

chemical structure: Cc1cc(OCCOCCC(F)(F)P(=O)(O)O)ccc1CCc1cnc2c(N)nc3cc(CCC(=O)O)ccc3c2c1
experimental system: COLO 205 colon
class name: inactive

chemical structure: CC(C)c1cccc(O)c(=O)c1
experimental system: COLO 205 colon
class name: inactive

chemical structure: CO[C@H]1C[C@](C)(O)Cc2cc3c(c(O)c21)C(=O)c1c(O)cc2c(c1C3=O)O[C@@H]1O[C@@]2(C)[C@H](O)[C@@H](N(C)C)[C@@H]1O
experimental system: COLO 205 colon
class name: inactive

chemical structure: CC(C)C(=O)c1c(C(F)(F)F)n([O-])c2cc(F)c(F)cc2[n+]1=O
experimental system: COLO 205 colon
class name: inactive

chemical structure: N#C/C(=N\Nc1ccccc1)C(=O)Nc1cc(-c2ccccc2)nn1-c1ccccc1
experimental system: COLO 205 colon
class name: inactive

chemical structure: O=C(Nc1ccc(F)cc1)Nc1ccc(Br)c(C(F)(F)F)c1
experimental system: COLO 205 colon
class name: inactive

chemical structure: COC1=CC(c2ccc[nH]2)=N/C1=C\c1[nH]c(C)c(CC(=O)OCc2ccccc2)c1C
experimental system: COLO 205 colon
class name: active

Now turn to the next compound.
Give the logged outcome of this assay for the following compound: C=C1C(=O)O[C@H]2[C@H]1CC/C(COC(=O)OC/C1=C/CC[C@@]3(C)O[C@H]3[C@H]3OC(=O)[C@@H](CN(C)C)[C@@H]3CC1)=C\CC[C@@]1(C)O[C@@H]21
inactive

----------
# Test system: M14 melanoma
# experiment notes: NCI tumour cell line growth inhibition, 48 h; in the data active means GI50 below about 0.43 µM; inactive means the rest
Write down one outcome, taken from active, inactive

compound: C=C1C(=O)O[C@H]2[C@H]1CC/C(COC(=O)OC/C1=C/CC[C@@]3(C)O[C@H]3[C@H]3OC(=O)[C@@H](CN(C)C)[C@@H]3CC1)=C\CC[C@@]1(C)O[C@@H]21
experimental system: M14 melanoma
class name: inactive

Answer briefly: the call reported for C=C1C(=O)O[C@H]2[C@H]1CC/C(Cn1cc(-c3ccc(F)cc3)nn1)=C\CC[C@@]1(C)O[C@@H]21 in this assay.
inactive

Call for entry NC(N)=NC(N)=NCCCc1ccco1 :
inactive

Short answer needed: outcome of this test for COC1=CC(c2ccc[nH]2)=N/C1=C\c1[nH]c(C)c(CC(=O)OCc2ccccc2)c1C ?
active

----------
# Tested on: NCI-H522 lung
# experiment notes: NCI tumour cell line growth inhibition, 48 h
experimental endpoint: TGI

// known answers, use as guide
molecule: Nc1ccc(COC(O)CN2CCCCC2)cc1[N+](=O)[O-] (configuration not stated)
result: > 100 µM
//
molecule: CCOC(=O)[C@@]1(C)CC(O)C(=O)N1C (some centres not stated)
result: > 100 µM
//
molecule: Cc1nc2ccccn2c1NC(=O)NNC(=S)Nc1ccc(F)cc1
result: > 100 µM
//
molecule: O=P(Nc1ccccc1)(Oc1ccccc1)N(CCCl)CCCl (configuration not stated)
result: 28.8 µM
//
molecule: CC(=O)OC12c3ccccc3-c3ccccc3C1C(C(=O)O)C2C(=O)O (configuration not stated)
result: > 10 µM

// next entry
The reported TGI of the molecule Cc1nc2ccc(F)cc2c(Cl)c1CCCl was 93.6 µM

----------
# Tested on: SK-MEL-28 melanoma
# experiment notes: NCI tumour cell line growth inhibition, 48 h
experimental endpoint: GI50

C[n+]1c2ccccc2nc2ccccc21 yielded GI50 of 1590 nM

Reported GI50 for CO[C@H]1C[C@](C)(O)Cc2cc3c(c(O)c21)C(=O)c1c(O)cc2c(c1C3=O)O[C@@H]1O[C@@]2(C)[C@H](O)[C@@H](N(C)C)[C@@H]1O was 1620 nM

Lab note: measured GI50 of Cc1ccc2c(c1)C(=O)c1c-2c(OCCCN(C)C)nc2ccccc12 was 1760 nM

Reported GI50 of ClCc1ccccc1Cn1cnc2c(Cl)ncnc21 : 2310 nM

What the record says about CC(C)C(=O)c1c(C(F)(F)F)n([O-])c2cc(F)c(F)cc2[n+]1=O : GI50 is 550 nM

Form field GI50, entry Clc1ccc2nc(CI)c(CI)nc2c1 : 14400 nM

----------
# System: EKVX NSCLC
# experiment notes: NCI tumour cell line growth inhibition, 48 h
The label depends only on TGI: yes (1) if it is at least 40 µM, no (0) if it is smaller.

molecule: CCCOP(=O)(OCCC)OC(C(F)(F)F)C(F)(F)F
experimental system: EKVX NSCLC
class name: yes (1)
--
molecule: CN1Cc2cc(O)c(O)cc2C(O)C1 (stereo not given)
experimental system: EKVX NSCLC
class name: yes (1)

Now look at this entry.
Say whether CCSc1nc(=S)n(-c2ccccc2)c(C)c1C(C)=O shows TGI of 40 µM or more.
yes (1)

----------
Each item that follows carries a reported TGI.
# System: DLD-1 colon
# experiment notes: NCI tumour cell line growth inhibition, 48 h

compound: CCOC(=O)C(Cc1ccccc1)NC(=O)c1[nH]cnc1/N=N/N(C)C (configuration not stated)
TGI: > 100 µM
//
compound: NCCNC(=O)c1cccc2cc3ccccc3nc12
TGI: 18.6 µM
//
compound: C=CC(C)C1(CCCOCc2ccccc2)C(=S)N2CCC3(CC24CCCC14)OCCO3 (configuration not stated)
TGI: > 100 µM
//
compound: C/C(CC(=O)Nc1ccccc1C)=N/NS(=O)(=O)c1ccc(C)cc1
TGI: > 100 µM
//
compound: COC1=C(C)C(=O)C2=C(C1=O)C1C3CC4=C(C(=O)C(OC)=C(C)C4=O)C(CNC(=O)C(C)O)N3C(C#N)C(C2)N1C (configuration not stated)
TGI: 0.372 µM
//
compound: CCCCCCCC/C=C1\CCC(CN2CCOCC2)C1=O (configuration not stated)
TGI: 8.03 µM

Input CCn1c2c(c3ccccc31)[C@@H](c1ccc(Cl)cc1)CC1C(=O)N(c3ccccc3)C(=O)C21 (some centres not stated) . Output TGI: > 100 µM

Item: N/N=C(\c1nc2ccc(Cl)cc2[nH]c1=O)C(O)c1ccc(Cl)c(Cl)c1 (configuration not stated) | TGI: > 100 µM

Value of measured TGI for the entry COC(=O)[C@]1(c2ccc(N(C)C)cc2OC)C[C@@H]2CCCN(CCc3c1[nH]c1ccccc31)C2 : > 64.1 µM

Note to self: TGI recorded for Cc1nc(N)nc(N)c1CCCc1ccccc1 was > 100 µM

Please fill in: TGI reported for CC(C)(C)N/N=C(\C(=O)Nc1nc(=S)[nH][nH]1)C1C(=O)Nc2ccccc2S1=O (configuration not stated) = > 100 µM

The reported TGI of the compound Cc1ccc(S(=O)(=O)c2ccc(C)cc2[N+](=O)[O-])cc1 was > 100 µM

----------
# System: RPMI-8226 leukemia
# experiment notes: NCI tumour cell line growth inhibition, 48 h
experimental endpoint: TGI

compound: CN(O)C(=O)CCCC(=O)NCC(C)(C)CNC(=O)CCCC(=O)N(C)O
experimental endpoint: TGI
result: > 100 µM

compound: CCOC(=O)CCN1C(=O)C(=O)N(c2ccc(OC)cc2)C1=S
experimental endpoint: TGI
result: > 100 µM

Record O=C1CSC(c2ccc([N+](=O)[O-])cc2)N1c1ccc(-c2ccc(-n3c(-c4ccccc4)nc4ccccc4c3=O)cc2)cc1 (stereo not given) , field TGI: > 100 µM

Data point: CN1Cc2cc(O)c(O)cc2C(O)C1 (stereo not given) ; TGI = > 100 µM

Notebook: Nc1nc(SCc2ccccc2Cl)cc(C(=O)O)n1 , TGI read as > 100 µM

Entry O=[N+]([O-])c1cc2ccc(N(CCO)CCO)nc2nc1N(CCO)CCO , TGI reported as > 100 µM

Briefly, TGI measured for ClCc1ccccc1Cn1cnc2c(Cl)ncnc21 : 40.6 µM

// TGI lookup, compound = Cc1[nH]c2ccccc2c1/C=N/NC(=O)c1cccc(I)c1 , result: 48.4 µM

Data credit: PubChem BioAssay (NCI)
